Where do these numbers come from? They come from paper PMC5767323.

Biological target: NtcA SS120 (Prochlorococcus sp. SS120)
Sequence: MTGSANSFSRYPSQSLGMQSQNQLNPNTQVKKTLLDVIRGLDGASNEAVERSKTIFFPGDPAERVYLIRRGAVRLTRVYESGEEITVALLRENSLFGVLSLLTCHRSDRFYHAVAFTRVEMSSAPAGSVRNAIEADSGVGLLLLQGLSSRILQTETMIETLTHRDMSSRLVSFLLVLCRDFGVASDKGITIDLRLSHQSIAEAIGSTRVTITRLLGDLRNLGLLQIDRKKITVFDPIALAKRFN
Assay: ITC
Conditions: ITC: 50 mM Hepes, 350 mM NaCl, pH 7.5, 25 C, 0-10 mM 2OG, SPR: Biacore X, CM5 with neutravidin, buffer not given, EMSA: as Napolitano et al. 2012, 1 uM …
pKd: −log10 of the molar value.
REPORTED METRIC: pKd

polymer_sequence="CCAATAAGCCCCACACGGCATTATTG (double strand) [DNA4, glnA promoter SS120 mutated]" assayed_target="NtcA SS120 (Prochlorococcus sp. SS120)" reported_metric=pKd value=5.00
